The origin of these recorded values is patent US12421220B2.

Biological target: CRBN-DDB1 (CRBN_DDB1.3) (Homo sapiens)
Assay: Fluorescence polarization (FP) binding assay, CRBN_DDB1.3 construct
Conditions: 0.05% PA, 0.1% BSA; tetrahydroquinoline binders; read-out: FP CRBN_DDB1.3 0.05% PA, 0.1% BSA ka nM
Kindly state Kd for each of the entries shown.

// lookup Kd for CC(C)(C)OC(=O)CN1CCC(c2cccc3c2CCCN3[C@H]2CCC(=O)NC2=O)CC1 (single isomer, unassigned)
< 1000 nM

Could you share which Kd value was measured for CN(C(=O)OC(C)(C)C)C1CCN(c2cccc3c2CCCN3[C@H]2CCC(=O)NC2=O)CC1 (single isomer, unassigned) ?
< 100000 nM

Which Kd is reported for this molecule? CC(C)(C)OC(=O)N1CCN(c2cccc3c2CCCN3[C@H]2CCC(=O)NC2=O)CC1 (single isomer, unassigned)
< 100000 nM

# query: Kd of entry CC(C)(C)OC(=O)N1CCN(c2cccc3c2CCCN3[C@@H]2CCC(=O)NC2=O)CC1 (single isomer, unassigned)
< 1000 nM

Value lookup for Kd; key = CC(C)(C)OC(=O)CN1CCC(c2cccc3c2CCCN3[C@@H]2CCC(=O)NC2=O)CC1 (single isomer, unassigned)
< 100000 nM

Using the record for CC(C)(C)OC(=O)N1CCC(c2cccc3c2CCCN3[C@@H]2CCC(=O)NC2=O)CC1 (single isomer, unassigned) , report its Kd.
< 100000 nM

Record request: Kd value, item CN(C(=O)OC(C)(C)C)C1CCN(c2cccc3c2CCCN3[C@@H]2CCC(=O)NC2=O)CC1 (single isomer, unassigned)
< 1000 nM

Field request: Kd | item: CC(C)(C)OC(=O)N1CCC(c2cccc3c2CCCN3[C@H]2CCC(=O)NC2=O)CC1 (single isomer, unassigned)
< 100000 nM

Recorded Kd of O=C1CC[C@@H](N2CCCc3c(N4CCC(CCO)CC4)cccc32)C(=O)N1 (single isomer, unassigned) , please.
< 100000 nM

====

Target: CRBN-DDB1 (CRBN_DDB1.7) (Homo sapiens, UniProt Q96SW2)
Sequence (Q96SW2 81-442 limits assumed): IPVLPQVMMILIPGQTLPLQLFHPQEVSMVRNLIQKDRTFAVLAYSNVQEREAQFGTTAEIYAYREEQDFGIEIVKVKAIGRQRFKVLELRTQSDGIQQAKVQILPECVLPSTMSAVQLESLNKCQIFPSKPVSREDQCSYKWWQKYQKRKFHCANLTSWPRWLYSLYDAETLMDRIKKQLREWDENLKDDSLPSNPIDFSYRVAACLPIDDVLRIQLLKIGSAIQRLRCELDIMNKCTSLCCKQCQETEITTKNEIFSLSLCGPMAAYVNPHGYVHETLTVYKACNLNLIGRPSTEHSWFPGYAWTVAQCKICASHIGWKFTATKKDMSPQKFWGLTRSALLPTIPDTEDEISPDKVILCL
Test: Fluorescence polarization (FP) binding assay, CRBN_DDB1.7 construct
Details: 0.05% PA, 0.1% BSA; benzomorpholine binders; read-out: FP CRBN_DDB1.7 0.05% PA, 0.1% BSA Ka nM
Description: Example 2: Fluorescence Polarization (FP) Assay for Screening Compound Ligand Binders of CRBN-DDB1 Measuring compound ligand binding to CRBN-DDB 1 was carried out using an established sensitive and quantitative in vitro fluorescence polarization (FP) based binding assay. (See, I. J. Enyedy et al, J. Med. Chem., 44: […] [2001]). Compounds were dispensed from serially diluted DMSO stock into black 384-well compatible fluorescence polarization plates using an Echo acoustic dispenser. […]
Outcome measure: Kd

Using the record for O=C1CCC(N2C(=O)COc3c(Br)cccc32)C(=O)N1 (stereo not shown) , report its Kd.
≤ 100000 nM

====

Exercise: state measured Kd for each of the compounds provided.
Target: UniProtKB Q96SW2
Test: Fluorescence polarization (FP) binding assay, CRBN_DDB1.3 construct
Details: 0.05% PA, 0.1% BSA; tetrahydroquinoline binders; read-out: FP CRBN_DDB1.3 0.05% PA, 0.1% BSA ka nM

If you can, please state the reported Kd value of CC(C)(C)OC(=O)N1CCC(OC2CCN(c3cccc4c3CCCN4[C@@H]3CCC(=O)NC3=O)CC2)CC1 (single isomer, unassigned) .
< 1000 nM

Can you look up the measured Kd of O=C1CC[C@H](N2CCCc3c(N4CCC(CCO)CC4)cccc32)C(=O)N1 (single isomer, unassigned) for me?
< 1000 nM

Data request, read-out Kd, for CC(C)(C)OC(=O)N1CCC(OC2CCN(c3cccc4c3CCCN4[C@H]3CCC(=O)NC3=O)CC2)CC1 (single isomer, unassigned)
< 100000 nM
